Test system: tobacco mosaic virus (TMV)
assay-remarks: Anti-TMV in vivo protective effect
Set-up: species or system tobacco mosaic virus (host Nicotiana tabacum L.cv.Xanthi NN)
conditions: treatment dose 500 μg/mL
Entries and their measured Relative inhibition rate (%) In vivo protection follow.
measure-name: Relative inhibition rate (%) In vivo protection

molecule	test-system	reported-measurement
C[C@@H]1N[C@H](C(=O)NN=Cc2ccc[nH]2)Cc2c1[nH]c1ccccc21	tobacco mosaic virus (TMV)	54.7
C[C@@H]1N[C@H](C(=O)NN=Cc2ccc(Cl)c(Cl)c2)Cc2c1[nH]c1ccccc21	tobacco mosaic virus (TMV)	48.1
C[C@@H]1N[C@H](C(=O)NNC(=O)C(C)(C)C)Cc2c1[nH]c1ccccc21	tobacco mosaic virus (TMV)	47.5
O=C(O)[C@@H]1Cc2c([nH]c3ccccc23)[C@H](c2cccnc2)N1	tobacco mosaic virus (TMV)	24.8
CCOC(=O)C1Cc2c([nH]c3ccccc23)C(C)=N1 (centres unmarked)	tobacco mosaic virus (TMV)	47

====

System: Bipolaria maydis
assay-remarks: organism not typed
Type: cell-based
conditions: read-out: Bactericidal activity (%) Bipolaria maydis

smiles-input	measurement-units	inhibition at 50 mg/kg
C[C@@H]1N[C@H](C(=O)O)Cc2c1[nH]c1ccccc21	%	22.7
N#Cc1c(Cl)c(Cl)c(Cl)c(C#N)c1Cl	%	91.3
COC(=O)Nc1nc2ccccc2[nH]1	%	100
C[C@H]1N[C@@H](C(=O)O)Cc2c1[nH]c1ccccc21	%	9.1
CC1=NCCc2c1[nH]c1ccccc21	%	27.3
Cc1nccc2c1[nH]c1c([N+](=O)[O-])cccc12	%	36.4
Cc1nccc2c1[nH]c1cc(OC(=O)[C@@H](NC(=O)OCc3ccccc3)C(C)C)ccc12	%	36.4
CCOC(=O)[C@@H]1Cc2c([nH]c3ccccc23)[C@H](C)N1	%	26.3
Cc1nc(C(=O)O)cc2c1[nH]c1ccccc12	%	21.1
Cc1nccc2c1[nH]c1cc(OC(=O)NC(C)C)ccc12	%	22.7

====

System: Rhizoctonia solani
assay-remarks: Fungicidal (bactericidal) activity in vitro, PDA colony diameter
Assay type: cell-based
conditions: Rhizoctonia solani, 96 h; 50 mg/kg
Classify by measured inhibition of growth at 50 mg/kg: TRUE if it is equal to or exceeds 20%, FALSE if it is smaller.

compound	class-assignment
C[C@H]1N[C@@H](C(=O)O)Cc2c1[nH]c1ccccc21 [Ib-2]	TRUE
Cc1nccc2c1[nH]c1ccc([N+](=O)[O-])cc12 [Ia-3]	FALSE
COC(=O)Nc1nc2ccccc2[nH]1 [Carbendazim]	TRUE
C[C@@H]1N[C@H](C(=O)NN)Cc2c1[nH]c1ccccc21 [Ib-15]	FALSE
COc1ccc2c(c1)[nH]c1c(C)nccc12 [Harmine]	TRUE
Cc1nc(C(=O)O)cc2c1[nH]c1ccccc12 [Ia-11]	TRUE
CCCCNC(=O)[C@@H]1Cc2c([nH]c3ccccc23)[C@H](C)N1 [Ib-16]	TRUE
CCOC(=O)[C@@H]1Cc2c([nH]c3ccccc23)[C@H](C)N1 [Ib-13]	TRUE
C[C@@H]1N[C@H](C(=O)NNC(=O)c2cccc3nnsc23)Cc2c1[nH]c1ccccc21 [Id-1]	FALSE

====

Tested on: tobacco mosaic virus (TMV)
assay-remarks: Anti-TMV in vivo inactivation
Parameters: species or system tobacco mosaic virus (host Nicotiana tabacum L.cv.Xanthi NN)
conditions: Tobacco mosaic virus; treatment dose 100 μg/mL; read-out: Relative inhibition rate (%) In vivo inactivation
Classify by measured inhibition at 100 µg/mL: yes (1) if it is equal to or exceeds 20%, no (0) if it is smaller.

molecule	class-assignment
Cc1nccc2c1[nH]c1cc(OC(=O)[C@@H](NC(=O)OCc3ccccc3)C(C)C)ccc12 [Ia-9]	no (0)
CC1NCCc2c1[nH]c1ccccc21 (stereo not shown) [Tetrahydroharmane]	yes (1)
C[C@@H]1N[C@H](C(=O)NC2CCCCC2)Cc2c1[nH]c1ccccc21 [Ib-17]	no (0)
Cc1nccc2c1[nH]c1c([N+](=O)[O-])cccc12 [Ia-4]	no (0)
Cc1nccc2c1[nH]c1cc(OC(=O)NC(C)C)ccc12 [Ia-5]	no (0)
C[C@@H]1N[C@H](C(=O)O)Cc2c1[nH]c1ccccc21 [Ib-1]	no (0)
CC1=NCCc2c1[nH]c1ccccc21 [Harmalan]	yes (1)
C[C@@H]1N[C@H](C(=O)NN)Cc2c1[nH]c1ccccc21 [Ib-15]	no (0)
C[C@H]1N[C@@H](C(=O)O)Cc2c1[nH]c1ccccc21 [Ib-2]	no (0)

====

Tested on: tobacco mosaic virus (TMV)
assay-remarks: Anti-TMV in vivo protective effect
Parameters: species or system tobacco mosaic virus (host Nicotiana tabacum L.cv.Xanthi NN)
conditions: treatment dose 500 μg/mL
measure-name: Relative inhibition rate (%) In vivo protection

compound	reported-measurement
C[C@@H]1N[C@H](C(=O)NN=Cc2cccnc2)Cc2c1[nH]c1ccccc21 [Ic-16]	33.6%
CCOC(=O)[C@@H]1Cc2c([nH]c3ccccc23)CN1 [Ib-7]	40.1%
C[C@@H]1N[C@H](C(=O)NN=Cc2ccc3cc(O)ccc3c2)Cc2c1[nH]c1ccccc21 [Ic-14]	47.8%
C[C@@H]1N[C@H](C(=O)NCC2CCCO2)Cc2c1[nH]c1ccccc21 (stereo partly drawn) [Ib-20]	29.6%
C[C@@H]1N[C@H](C(=O)NN=Cc2ccncc2)Cc2c1[nH]c1ccccc21 [Ic-15]	37.5%
C[C@@H]1N[C@H](C(=O)NN=Cc2ccc3c(c2)OCO3)Cc2c1[nH]c1ccccc21 [Ic-12]	68.1%
O=C(O)/C=C/c1cc2c([nH]c3ccccc32)c(-c2cccs2)n1 [Ia-15]	35.1%
C[C@@H]1N[C@H](C(=O)NNC(=O)C2CCCC2)Cc2c1[nH]c1ccccc21 [Id-7]	53.9%
C[C@@H]1N[C@H](C(=O)NN=Cc2ccc(C(C)(C)C)cc2)Cc2c1[nH]c1ccccc21 [Ic-2]	53.8%
C[C@@H]1N[C@H](C(=O)NN=CC2CCCCC2)Cc2c1[nH]c1ccccc21 [Ic-25]	69.2%
CCCC=NNC(=O)[C@@H]1Cc2c([nH]c3ccccc23)[C@H](C)N1 [Ic-23]	40.5%
C[C@@H]1N[C@H](C(=O)NN=Cc2ccc3c(c2)OCCO3)Cc2c1[nH]c1ccccc21 [Ic-13]	46%
C[C@@H]1N[C@H](C(=O)NN=Cc2ccco2)Cc2c1[nH]c1ccccc21 [Ic-18]	47.5%
Cc1nccc2c1[nH]c1cc(OC(=O)N(C)C)ccc12 [Ia-6]	18.7%
CC(=NNC(=O)[C@@H]1Cc2c([nH]c3ccccc23)[C@H](C)N1)C(C)(C)C [Ic-28]	56.8%
C[C@@H]1N[C@H](C(=O)NN=Cc2ccc(Cl)cc2Cl)Cc2c1[nH]c1ccccc21 [Ic-6]	57.2%
C/C=C/C=NNC(=O)[C@@H]1Cc2c([nH]c3ccccc23)[C@H](C)N1 [Ic-22]	37.1%
CC(=NNC(=O)[C@@H]1Cc2c([nH]c3ccccc23)[C@H](C)N1)c1ccccc1 [Ic-27]	37.2%

====

Test system: mosquito larvae
assay-remarks: whole plant or invertebrate
conditions: concentration 10 mg/kg, 24 h

compound	Mosquito larvae Mortality (%)
CCCCCCCC=NNC(=O)[C@@H]1Cc2c([nH]c3ccccc23)[C@H](C)N1 [Ic-24]	100%
C[C@@H]1N[C@H](C(=O)NN=Cc2ccc([N+](=O)[O-])cc2)Cc2c1[nH]c1ccccc21 [Ic-4]	65%
C[C@@H]1N[C@H](C(=O)NN=Cc2ccc3c(c2)OCO3)Cc2c1[nH]c1ccccc21 [Ic-12]	15%
CCOC(=O)C1Cc2c([nH]c3ccccc23)C(C)=N1 (stereo not drawn) [Ib-14]	30%
C[C@@H]1N[C@H](C(=O)NN=Cc2ccc(Cl)cc2Cl)Cc2c1[nH]c1ccccc21 [Ic-6]	100%
C[C@@H]1N[C@H](C(=O)NN=Cc2cccs2)Cc2c1[nH]c1ccccc21 [Ic-20]	75%
Cc1nnsc1C(=O)NNC(=O)[C@@H]1Cc2c([nH]c3ccccc23)[C@H](C)N1 [Id-2]	80%
CCCCCC(=O)NNC(=O)[C@@H]1Cc2c([nH]c3ccccc23)[C@H](C)N1 [Id-5]	10%
Cc1nccc2c1[nH]c1cc(OC(=O)N(C)C)ccc12 [Ia-6]	100%

====

Entries and their measured Bactericidal activity (%) Fusarium graminearumt follow.
System: Fusarium graminearumt
assay-remarks: microbe, parasite or virus in culture
Assay type: cell-based
conditions: 50 mg/kg
measure-name: Bactericidal activity (%) Fusarium graminearumt

compound	reported-measurement
CCOC(=O)c1cc2c([nH]c3ccccc32)c(C)n1	71.4
Cc1nnsc1C(=O)NNC(=O)[C@@H]1Cc2c([nH]c3ccccc23)[C@H](C)N1	53.8
C[C@@H]1N[C@H](C(=O)NN=Cc2ccncc2)Cc2c1[nH]c1ccccc21	27.6
CCCCCC(=O)NNC(=O)[C@@H]1Cc2c([nH]c3ccccc23)[C@H](C)N1	46.2
C[C@@H]1N[C@H](C(=O)NN=Cc2ccc(Cl)c(Cl)c2)Cc2c1[nH]c1ccccc21	76.9
COc1ccccc1C=NNC(=O)[C@@H]1Cc2c([nH]c3ccccc23)[C@H](C)N1	72.4
CCOC(=O)[C@H]1Cc2c([nH]c3ccccc23)[C@@H](C)N1	26.2
C[C@@H]1N[C@H](C(=O)NN=Cc2ccc(Cl)cc2Cl)Cc2c1[nH]c1ccccc21	53.8
COc1cccc(C=NNC(=O)[C@@H]2Cc3c([nH]c4ccccc34)[C@H](C)N2)c1	41.4
CCOC(=O)C1Cc2c([nH]c3ccccc23)C(C)=N1 (centres unmarked)	42.9
C[C@@H]1N[C@H](C(=O)NNC(=O)C(C)(C)C)Cc2c1[nH]c1ccccc21	30.8
C[C@@H]1N[C@H](C(=O)NN=Cc2ccco2)Cc2c1[nH]c1ccccc21	6.9
CCOC(=O)[C@@H]1Cc2c([nH]c3ccccc23)CN1	42.9
CCOC(=O)C1Cc2c([nH]c3ccccc23)CN1 (centres unmarked)	35.7
